MEASURED ENDPOINT: melting point

Some solved cases for reference:
>>> df
                                   compound  measured_endpoint  value_reported
0  COc1ccc2nc(COc3ccc4c(c3)C(SCCC(=O)O)c3ccccc3CO4)ccc2c1 (stereo not drawn)      melting point   174 to 175 °C
1  COc1cc(COc2nn(-c3ccccc3)cc2/C=C/S(C)=O)ccc1OCc1nc(-c2ccco2)oc1C (stereo not drawn)      melting point   156 to 157 °C
2  Nc1nc(N)nc(-c2ccc(S(=O)c3ccccc3)cc2)n1 (stereo not drawn)      melting point   253 to 255 °C
3          CSCc1cccc(-c2nc(=O)c3ccccc3s2)n1      melting point   152 to 153 °C
4  N#CC(C(=O)Nc1ccccc1)C(=O)c1nn(-c2ccccc2)c2c1CSc1ccccc1-2 (stereo not drawn)      melting point   228 to 230 °C
5  COC(=O)C[C@H](O)CC(=O)CCc1c(-c2ccc(F)cc2)c(-c2ccccc2)c(C(=O)Nc2ccccc2)n1C(C)C      melting point     75 to 77 °C
6  O=c1cnc(C(F)(F)F)cn1-c1c(Cl)cc(C(F)(F)F)cc1[N+](=O)[O-]      melting point   145 to 147 °C
7              CCOC(=O)c1nn(C)c(OC(F)F)c1CO      melting point     90 to 91 °C
8  CS(=O)(=O)Nc1ccc([N+](=O)[O-])cc1OC1CCCCC1      melting point   136 to 137 °C
9          OCCc1noc(Cc2ccc(-c3ccccc3)cc2)n1      melting point     94 to 95 °C

From here, focus on the item given below.
Input line: I am curious: what melting point value has been reported for COc1cc(N)c2nccc(C)c2c1Oc1ccc(Cl)cc1Cl ?
Output line: 115 to 118 °C

----------
As shown below, each of these molecules has a reported melting point value.

Some solved cases for reference:
>>> print(df.to_string())
                                   molecule  measured_endpoint  value_reported
0  COC(=O)Nc1cn2c(S(=O)c3ccccc3)cccc2n1 (stereo unspecified)      melting point   249 to 251 °C
1       CCOc1cc(OCC)c2c(C)c(CCCl)c(=O)oc2c1      melting point   123 to 126 °C
2           N=C(N)Nc1nc2cc(Cl)c(Cl)cc2[nH]1      melting point        > 260 °C
3  O=C(c1ccn2c1CSC2c1cccnc1)c1cn(Cc2nnn[nH]2)c2cc(-c3ccc(F)cc3)ccc12 (stereo unspecified)      melting point   110 to 118 °C
4  CC(C)(C)OC(=O)C=Cc1ccc(-c2ccc3ncnc(Nc4ccc(OCc5cccc(F)c5)c(Cl)c4)c3c2)cc1      melting point          212 °C

Input line: I am curious: what melting point value has been reported for CC1=CC(=O)CC(C)(C)C1(O)C/C=C(C)/C=C\O (stereo unspecified) ?
Output line: 127 to 129 °C

Input line: I am curious: what melting point value has been reported for C[Si](C)(C)c1ccc(C(=O)Nc2nnn[nH]2)o1 ?
Output line: 247 to 248 °C

Input line: I am curious: what melting point value has been reported for OCc1cn2c(n1)CN=C(c1ccccn1)c1cc(Br)ccc1-2 ?
Output line: 176 to 178 °C

Input line: I am curious: what melting point value has been reported for CCSc1cc(-c2ccc(Cl)cc2Cl)ccc1C#N ?
Output line: 89 to 92 °C

Input line: I am curious: what melting point value has been reported for CCOc1ccc(C=CC(=O)OC)cc1 ?
Output line: 68 to 70 °C

Input line: I am curious: what melting point value has been reported for CC(C)(C)C(=O)Nc1c(F)cc(F)cc1Oc1ccc(C2CC(=O)NC(=O)C2)cc1 ?
Output line: 172 °C

Input line: I am curious: what melting point value has been reported for CCOC(=O)c1[nH]c(C)c(CC(C)C)c1C ?
Output line: 115 to 117 °C

----------
MEASURED ENDPOINT: melting point

In [3]: df
Out[3]:
                                   compound  measured_endpoint  value_reported
0  Cc1cc(-n2cncn2)c2cccc(OCc3c(Cl)ccc(S(=O)(=O)N4CCC[C@H]4C(=O)NCCN(C)C)c3Cl)c2n1      melting point          106 °C
1  COCOc1cc(F)ccc1-c1cc(-c2cccc(NC(=O)CCN(C)C(=O)OC(C)(C)C)c2)c(C#N)c(NC(=O)c2ccco2)n1      melting point   172 to 174 °C
2  O=[N+]([O-])c1ccc(C(=NO)c2ccc([N+](=O)[O-])cc2)cc1      melting point          194 °C
3         COc1cccc2c3c([nH]c12)C(=O)N=NC3=O      melting point        > 260 °C

Input line: I am curious: what melting point value has been reported for Oc1ccc(-c2cnc(-c3ccccc3)[nH]c2=S)cc1O ?
Output line: 220 °C

Input line: I am curious: what melting point value has been reported for O=C(O)Cn1c(-c2cccc(F)c2)nc2cccnc21 ?
Output line: 243 to 245 °C

Input line: I am curious: what melting point value has been reported for C=Cc1ncn2c1CN(C)C(=O)c1c(Cl)cccc1-2 ?
Output line: 205 to 207 °C

Input line: I am curious: what melting point value has been reported for O=C(O)c1ccccc1-c1cc(-c2ccc(O)cc2)[nH]n1 ?
Output line: 260 to 264 °C

Input line: I am curious: what melting point value has been reported for N#CC1=C(Nc2cc(F)cc(F)c2)CCC1 ?
Output line: 113 to 115 °C

Input line: I am curious: what melting point value has been reported for O=C(O)Cn1c(=O)c2cc(Cl)ccc2n(Cc2ccc(Br)cc2F)c1=O ?
Output line: 189 °C

----------
MEASURED ENDPOINT: melting point

Input line: I am curious: what melting point value has been reported for NNc1cc(OC2CCCC2)c(Cl)cc1F ?
Output line: 77 to 79 °C

Input line: I am curious: what melting point value has been reported for Cc1ncc(CN2CC=C(/C=C/c3ccccc3)CC2)c(N)n1 ?
Output line: 199 to 203 °C

Input line: I am curious: what melting point value has been reported for COc1ccc(-c2cc(C(F)(F)F)n3ncc(C(=O)Nc4cccc(S(=O)(=O)N5CCOCC5)c4)c3n2)cc1 ?
Output line: 203 °C

Input line: I am curious: what melting point value has been reported for Nc1nc(N)c(C(=O)NC2=NCCN2)nc1Cl ?
Output line: 236 °C

Input line: I am curious: what melting point value has been reported for Nc1cccc(-c2ccc(CCNCc3ccc(Cl)c(Cl)c3)c3ccccc23)n1 ?
Output line: 145 to 170 °C

Input line: I am curious: what melting point value has been reported for COc1ccc(OS(=O)(=O)c2ccc(N3CCN(C)C3=O)cc2)cc1 ?
Output line: 183 to 185 °C

Input line: I am curious: what melting point value has been reported for Cc1noc(C)c1Cn1cc(NC(=O)[C@@H](C)c2ccccc2)cn1 ?
Output line: 108 to 110 °C

Input line: I am curious: what melting point value has been reported for CONC(=N)c1ccc(-c2cc3ncn([C@H](C)[C@](O)(Cn4cncn4)c4ccc(F)cc4F)c(=O)c3s2)cc1 ?
Output line: 125 to 128 °C

Input line: I am curious: what melting point value has been reported for Cc1cccc(C)c1C1C(=O)CC(C)(C)CC1=O ?
Output line: 177 to 186 °C

Input line: I am curious: what melting point value has been reported for CC(C)S(=O)(=O)Nc1cc(C(=O)c2ccccc2)ccc1[N+](=O)[O-] ?
Output line: 115 to 116 °C

Input line: I am curious: what melting point value has been reported for Nc1nc2cc(Cl)c(Cl)cc2nc1-c1cccs1 ?
Output line: 235 to 237 °C

Input line: I am curious: what melting point value has been reported for CC(C)c1ccc(-c2nc(=O)n(Cc3ccccc3)c3ccc(O)cc23)cc1 ?
Output line: > 270 °C

Input line: I am curious: what melting point value has been reported for O=C1N(Cc2nc3ccccc3s2)c2ccccc2C12COc1cc3c(cc12)OCCO3 (configuration not stated) ?
Output line: 164 to 166 °C

Input line: I am curious: what melting point value has been reported for O=C(Nc1c(C(O)(C(F)(F)F)C(F)(F)F)ccc2ccccc12)c1ccc(Cl)cc1 ?
Output line: 175 to 176 °C

Input line: I am curious: what melting point value has been reported for O=C(Nc1cc(Cl)ccc1-c1nnn[nH]1)c1cnn(-c2ccc(Cl)cc2)c1C(F)(F)F ?
Output line: 176 to 180 °C

Input line: I am curious: what melting point value has been reported for COc1ccc2c(c1)S(=O)(=O)c1ccccc1C(=O)N2 ?
Output line: 244 to 246 °C

Input line: I am curious: what melting point value has been reported for O=c1oc2c(ccc3ccccc32)c2c1CNCC2 ?
Output line: 227 to 230 °C

Input line: I am curious: what melting point value has been reported for CCOC(=O)Nc1cccc2c1CN(C)CC2c1ccccc1 (configuration not stated) ?
Output line: 174 °C
